Where do these numbers come from? They come from patent US20050178959A1.

- Study Target: GST-14-3-3
- Test Protocol: biotinylated peptide on streptavidin-agarose beads, pull-down, trypsin digest, MALDI-MS, ion m/z1245.7
Non-standard residues stand in square brackets, D forms with d. *: point of attachment. Biotin = O=C1N[C@H]2[C@H](CS[C@H]2CCCCC(=O)*)N1; pS = N[C@@H](COP(=O)(O)O)C(=O)O
signal size for assorted binders
Outcome Measure: signal size

• Biotin-SGSGVLIKRRSTEL-OH (SMILES CC[C@H](C)[C@H](NC(=O)[C@H](CC(C)C)NC(=O)[C@@H](NC(=O)CNC(=O)[C@H](CO)NC(=O)CNC(=O)[C@H](CO)NC(=O)CCCC[C@@H]1SC[C@@H]2NC(=O)N[C@@H]21)C(C)C)C(=O)N[C@@H](CCCCN)C(=O)N[C@@H](CCCNC(=N)N)C(=O)N[C@@H](CCCNC(=N)N)C(=O)N[C@@H](CO)C(=O)N[C@H](C(=O)N[C@@H](CCC(=O)O)C(=O)N[C@@H](CC(C)C)C(=O)O)[C@@H](C)O) [COXD biotinylated peptide (Biotin-…-COOH)] = 3600
• Biotin-SGSGPRPLRRE[pS]EI-OH (SMILES CC[C@H](C)[C@H](NC(=O)[C@H](CCC(=O)O)NC(=O)[C@H](COP(=O)(O)O)NC(=O)[C@H](CCC(=O)O)NC(=O)[C@H](CCCNC(=N)N)NC(=O)[C@H](CCCNC(=N)N)NC(=O)[C@H](CC(C)C)NC(=O)[C@@H]1CCCN1C(=O)[C@H](CCCNC(=N)N)NC(=O)[C@@H]1CCCN1C(=O)CNC(=O)[C@H](CO)NC(=O)CNC(=O)[C@H](CO)NC(=O)CCCC[C@@H]1SC[C@@H]2NC(=O)N[C@@H]21)C(=O)O) [Kir2.1* biotinylated phosphopeptide (Biotin-…*EI-COOH)] = 8000
